I'd be grateful if you could share measured cytotoxicity at 70.5 h for these entries.
# assay-remarks: Human HepG2 cell viability assay in 384 well format
# Type: toxicity, cell-based
# Parameters: dose 125 nL, time 70.5 hour; concentration not given beside the values
# conditions: HepG2 cells, read-out: Inhibition
Answer with a number only, understood to be in %.

query: May I ask what cytotoxicity at 70.5 h has been recorded for CC(C)CNC(=O)[C@H]1C[C@@H]2CN(Cc3cccnc3)C[C@H]1O2 ?
result: -2.17

query: Cool, now C[C@@H]1CN(Cc2cn(C)nc2-c2ccccc2F)C[C@H](C)O1
result: -11.3

query: Cool, now c1ccc2cc(OCCN3CCOC(Cn4cncn4)C3)ccc2c1 (stereo unspecified)
result: 27.8

query: Cool, now Cc1nn(C)c(C)c1C(=O)N1CCOCC1CC(=O)c1ccco1 (stereo unspecified)
result: -18.7

query: Cool, now Cc1ccc(N2CCCC(N(C)Cc3nc(C)c(C)o3)C2)nn1 (stereo unspecified)
result: -11.5

query: Cool, now CNC(=O)c1ccnc(CC2COc3c(cccc3OC)C2)c1 (stereo unspecified)
result: -25.4

====

I'd be grateful if you could share measured cytotoxicity at 70.5 h for these entries.
# assay-remarks: Human HepG2 cell viability assay in 384 well format
# Format: toxicity, cell-based
# Parameters: dose 125 nL, time 70.5 hour; concentration not given beside the values
# conditions: HepG2 cells, read-out: Inhibition
Answer with a number only, understood to be in %.

query: May I ask what cytotoxicity at 70.5 h has been recorded for COCc1ncc(CN(Cc2ccncc2)Cc2ccc(C)s2)cn1 ?
result: -6.86

query: Cool, now Cc1cccc(CN2Cc3[nH]nc(COc4cccnc4)c3C2)n1
result: -3.62

query: Cool, now Cc1nnc(N2CCN(C)C3(CCC(=O)N(CCO)CC3)C2)s1 (configuration not stated)
result: 22.1

query: Cool, now Cc1ccc(OCCC(=O)N2CCCC(n3nc(C)nc3C)C2)cc1 (configuration not stated)
result: -11.7

query: Cool, now Cc1cnc(N2C[C@H]3C[C@H](C(=O)N4CCN(C)CC4)N(C)[C@H]3C2)nc1
result: -9.1

query: Cool, now CNC(=O)Cc1n[nH]c(-c2cncc(Br)c2)n1
result: 27.1

query: Cool, now Cc1nc(C)c(C)c(N2CCC3(CCOC3)C2)n1 (configuration not stated)
result: 17

====

I'd be grateful if you could share measured cytotoxicity at 70.5 h for these entries.
# assay-remarks: Human HepG2 cell viability assay in 384 well format
# Assay type: toxicity, cell-based
# Set-up: dose 125 nL, time 70.5 hour; concentration not given beside the values
# conditions: HepG2 cells, read-out: Inhibition
Answer with a number only, understood to be in %.

query: May I ask what cytotoxicity at 70.5 h has been recorded for Cc1cnn(CCNCc2cccc(C#N)c2)c1 ?
result: 4.17

query: Cool, now O=C1N[C@@H]2CCN(C(=O)C3CC3)[C@@H]2C(=O)N1c1ccc(F)cc1
result: -13.5

query: Cool, now Cc1ccc(NC2CCN(C(=O)c3ccc(F)c(C)c3)CC2)nn1
result: 14.1

query: Cool, now Cc1nc(NCc2noc(C3CCCO3)n2)c2ccsc2n1 (configuration not stated)
result: 26.9

query: Cool, now CN(CCCc1cnn(C)c1)Cc1cc2n(n1)CCCNC2
result: -14.1

query: Cool, now COc1ccccc1C(C)(C)NC(=O)c1ccc(F)c(NC(C)=O)c1
result: -7.74

query: Cool, now O[C@@H]1C[C@@](CNCC2CCCC2)(COc2cccnc2)C[C@@H]1O
result: -6.04

query: Cool, now Cc1occc(=O)c1OCC(=O)N1CCN(c2ccccc2)CC1
result: -0.838

query: Cool, now Cc1ncsc1C(=O)NCc1cccnc1N(C)CCc1ccccn1
result: -5.9

query: Cool, now CCC(=O)NC1CCCN(Cc2ccc(NC(C)=O)cc2)C1 (configuration not stated)
result: -4.65

query: Cool, now CS(=O)(=O)CC(=O)N1C[C@@H]2COC[C@]2(c2nnc(C3CC3)o2)C1
result: 4.38

query: Cool, now COc1ccccc1Nc1nc2c(C)nn(C)c2c(=O)n1C
result: 26.9

query: Cool, now Cc1cccc(CN2CCC(NCC3CNc4cc(C)nn4C3)CC2)c1 (configuration not stated)
result: -6.82

query: Cool, now CN(C)C(=O)C1(c2cnccn2)CCCN1C(=O)Cc1ccccc1 (configuration not stated)
result: -5.41

query: Cool, now CN(C)CCn1c([C@@H]2CCCO2)cc2cccnc21
result: 2.42

query: Cool, now CCc1ccc(C(=O)O)cc1S(=O)(=O)N(C)c1cccc(C#N)c1
result: -6.98

query: Cool, now CNc1cc(N2CCCC2CNCc2ccco2)ncn1 (configuration not stated)
result: -1.02

query: Cool, now CCN(CC)C(=O)N1CCN(C(=O)C2CCCc3[nH]ncc32)CC1 (configuration not stated)
result: -3.25

query: Cool, now Cc1nc(C)n(CC2CCCN2Cc2ccccn2)n1 (configuration not stated)
result: -6.2

query: Cool, now CCOCC(=O)NCCCn1ccnc1-c1ccccc1
result: -7.22

query: Cool, now CN1C(=O)CC(C(=O)O)C12CCN(Cc1ccc(F)cc1Cl)CC2 (configuration not stated)
result: -9.57

query: Cool, now CCCS(=O)(=O)N1CCC2(CC1)CN(C(=O)N(C)C)c1ccccc12
result: -10.2

query: Cool, now COc1cccc2c1OCC(CNC(=O)COCC(F)(F)C(F)F)C2 (configuration not stated)
result: 8.83

query: Cool, now COCCN(C)Cc1cn(C)nc1-c1ccc2c(c1)OCCO2
result: -7.93

query: Cool, now Cc1ccc(CN2CCO[C@@H]3C[C@@H](C(=O)NC(C)C)C[C@H]32)o1
result: -8.04

query: Cool, now Cc1noc(CNC(=O)NCCOc2ccc(Cl)cc2)n1
result: -3.2

query: Cool, now CCOc1ccccc1CCC(=O)Nc1c(C)nn(C)c1C
result: 14.5

====

# assay-remarks: Human HepG2 cell viability assay in 384 well format
# Assay type: toxicity, cell-based
# Design: dose 125 nL, time 70.5 hour; concentration not given beside the values
# conditions: HepG2 cells, read-out: Inhibition
measured-quantity: cytotoxicity at 70.5 h

query: May I ask what cytotoxicity at 70.5 h has been recorded for CC(C(=O)NCCN1CCCCC1)n1cncn1 (stereo not given) ?
result: -12.5%

query: Cool, now Cc1noc(C)c1CN1CC[C@H]2OCC[C@@]2(C(=O)NCC2CC2)C1
result: -5.64%

query: Cool, now COc1ccc2c(c1)C(C(=O)N(C)CCc1scnc1C)CC(=O)N2 (stereo not given)
result: -5.27%

query: Cool, now O=C(NCCc1nncn1C1CC1)C1SCCc2ccccc21 (stereo not given)
result: -7.17%

query: Cool, now Cc1ccc(C(C)C(=O)N2CCCN(Cc3cscn3)CC2)cc1 (stereo not given)
result: 5.25%

query: Cool, now Cc1nc(C)n(CC2CCCN2CC(=O)N(C)Cc2ccc(C)o2)n1 (stereo not given)
result: -4.56%

query: Cool, now O=C1CCC2(CCN(Cc3cc(F)cc(F)c3)CC2)CN1CCO
result: -1.2%

query: Cool, now Cc1nn(C(C)(C)C)c(=O)n1CC(=O)NCC(F)(F)F
result: 3.06%

query: Cool, now CC(NC(=O)c1ccnc(C2CC2)n1)C1(N2CCOCC2)CCCC1 (stereo not given)
result: -4.36%

query: Cool, now CCN(CC)C1CCN(C(=O)c2cc3cc(C)cc(C)c3nc2C)CC1
result: -2.42%

query: Cool, now CN1CCCN(C(=O)c2nc3c(n2C)CCN(c2ncccn2)C3)CC1
result: 22.6%

query: Cool, now Cc1sc2c(C3CCCN(C(C)C)C3)nc(C)n2c1C (stereo not given)
result: -3.36%

query: Cool, now COC(=O)N1CCN(Cc2ccccc2C(C)(C)C#N)CC1
result: -5.92%

query: Cool, now CN(CC1CCCCC1)C(=O)c1ccc(-n2ncc(C#N)c2N)cc1
result: -5.32%

query: Cool, now COc1ccccc1CNC(=O)C[S+]([O-])Cc1cc(C)on1 (stereo not given)
result: -3.68%

====

I'd be grateful if you could share measured cytotoxicity at 70.5 h for these entries.
# assay-remarks: Human HepG2 cell viability assay in 384 well format
# Type: toxicity, cell-based
# Design: dose 125 nL, time 70.5 hour; concentration not given beside the values
# conditions: HepG2 cells, read-out: Inhibition
Answer with a number only, understood to be in %.

query: May I ask what cytotoxicity at 70.5 h has been recorded for O=C1N(C2CCCCC2)C[C@H]2CN(C3CCC3)CCN12 ?
result: 9.88

query: Cool, now CCC1CCCN(Cc2nc3ccccc3c(=O)[nH]2)C1 (stereo unspecified)
result: -14

query: Cool, now CS(=O)(=O)N1CCC(c2nnc(CN3CCCC3)n2C2CC2)CC1
result: 0.642

query: Cool, now Cc1nc(C2CCCCC2)sc1C(=O)O
result: 0.584

query: Cool, now CCOC(=O)c1ccc(CNC(=O)c2ccc(Cl)cn2)o1
result: -6.63

query: Cool, now CC(C)c1nc(/C=C/c2ccc(O)c(Cl)c2)ncc1C(=O)O
result: -4.86

query: Cool, now Cc1nc(N(C)C)nc(C)c1NC(=O)c1ccccc1C(F)(F)F
result: -11

query: Cool, now CC(=O)N1CC(C(=O)N2CCCC(Cn3ccnc3C)C2)C1 (stereo unspecified)
result: -9.41

query: Cool, now CC(C)c1nnc(N2C[C@@H]3CC[C@H](C2)N(CC2CCC2)C3)s1
result: -2.56

query: Cool, now Cc1cnn(CC2CCCCN2C(=O)c2cccc(C(N)=O)c2)c1 (stereo unspecified)
result: -1.63

query: Cool, now Cn1nc(Br)nc1Sc1ccccc1NC(=O)C1CC1
result: 1.89

query: Cool, now CN1CC2(CCN(C(=O)c3[nH]cnc3-c3ccccc3)C2)OC1=O (stereo unspecified)
result: -3.76

query: Cool, now COc1ncccc1C(=O)N1CCCC1c1c(C)nn(C)c1Cl (stereo unspecified)
result: -0.671

query: Cool, now Cc1nc(C2CCN(C(=O)c3cc(C4CC4)[nH]n3)CC2)no1
result: -0.899

query: Cool, now CC(=O)N1CCCN(C(=O)c2ccc(=O)n(C)c2)c2ccccc21
result: -2.79

query: Cool, now CCn1cnnc1C1CCN(C(=O)c2cnc3ccccc3n2)CC1
result: -16.4

query: Cool, now CC(C)NCc1cccnc1N1CCN(c2ccccn2)CC1
result: -11.6

query: Cool, now Cc1noc(C)c1CCC(=O)N1CCCN(Cc2cscn2)CC1
result: -2.08

query: Cool, now CCS(=O)(=O)N1CCC2(CC1)CN(c1cccnc1)C(=O)CO2
result: -5.49

query: Cool, now CN1CC(C(=O)NCc2ccc(OCc3cccnc3)cc2)CC1=O (stereo unspecified)
result: 12.9

query: Cool, now Cc1ccccc1CSc1nc(N)cc(N2CCCC(C(N)=O)C2)n1 (stereo unspecified)
result: -2.56

Values compiled from ChEMBL document CHEMBL3507680.
